- Test system: GRANTA-519 cells
- measurement.protocol: Proliferation assay, suspension cells, Cell Titer-Glo
- Type: cell-based
- assay.conditions: Homo sapiens, 96 h; GRANTA-519 (DSMZ ACC-342), mantle cell lymphoma; 4 days incubation; CTG
endpoint.label: IC50

{"molecular.string": "C[C@@H](O)[C@@H](C)Oc1nc(Nc2ccc([S@](=N)(=O)C3CC3)cc2)ncc1C(F)(F)F", "endpoint.label": "IC50", "result": "44 nM"}

---

- Tested on: HBL-1 cells
- measurement.protocol: Proliferation assay, suspension cells, Cell Titer-Glo
- Assay type: cell-based
- assay.conditions: Homo sapiens, HBL1, 96 h; HBL-1 (Charité, Berlin), diffuse large B-cell lymphoma; 4 days incubation; CTG
endpoint.label: IC50

{"compound": "C[C@@H](O)[C@@H](C)Oc1nc(Nc2ccc([S@](=N)(=O)C3CC3)cc2)ncc1C(F)(F)F [BAY 1000394]", "result": "0.024 µM"}

---

- Tested on: A-673 cells
- measurement.protocol: Proliferation assay, adherent cells, crystal violet
- Format: cell-based
- assay.conditions: Homo sapiens, A673, 96 h, A-673 (ATCC CRL-1598), rhabdomyosarcoma, 4 days incubation

{"molecular.string": "C[C@@H](O)[C@@H](C)Oc1nc(Nc2ccc([S@](=N)(=O)C3CC3)cc2)ncc1C(F)(F)F", "IC50 / nM": 9.8}

---

- System: SiHa cells
- measurement.protocol: Proliferation assay, adherent cells, crystal violet
- Type: cell-based
- assay.conditions: Homo sapiens, 96 h, SiHa (ATCC HTB-35), squamous-cell carcinoma, cervix, 4 days incubation
endpoint.label: IC50

{"molecular.string": "C[C@@H](O)[C@@H](C)Oc1nc(Nc2ccc([S@](=N)(=O)C3CC3)cc2)ncc1C(F)(F)F", "endpoint.label": "IC50", "result": "10 nM"}

---

- Tested on: CAL-33 cells
- measurement.protocol: Proliferation assay, adherent cells, crystal violet
- Assay type: cell-based
- assay.conditions: Homo sapiens, 96 h, CAL-33 (DSMZ ACC-447), squamous-cell carcinoma, head and nape, 4 days incubation
pIC50: −log10 of the molar value.
endpoint.label: pIC50

{"molecular.string": "C[C@@H](O)[C@@H](C)Oc1nc(Nc2ccc([S@](=N)(=O)C3CC3)cc2)ncc1C(F)(F)F", "endpoint.label": "pIC50", "recorded.number": 7.72}
